System: Sindbis virus TE/5'2J-GFP;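 note: Interferon-defective BHK-21 derivatives, ZAP line overexpressing the rat ZAP N-terminal zinc finger domain fused to Zeocin resistance, GFP scored within live singlet TagRFP+ cells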
Assay: percent infected (GFP+ in RFP+ ISG-expressing cells); higher = more infection (less antiviral activity)
Settings: experiment: confirmatory screen 1; BHK/NZAP-Zeo (ZAP)
In this section, each of the sequences is paired with its reported percent infected.
Provide the reading as a plain figure in %.

Recall the recorded percent infected for MTLNNVTMRQGTVGMQPQQQRWSIPADGRHLMVQKEPHQYSHRNRHSATPEDHCRRSWSSDSTDSVISSESGNTYYRVVLIGEQGVGKSTLANIFAGVHDSMDSDCEVLGEDTYERTLMVDGESATIILLDMWENKGENEWLHDHCMQVGDAYLIVYSITDRASFEKASELRIQLRRARQTEDIPIILVGNKSDLVRCREVSVSEGRACAVVFDCKFIETSAAVQHNVKELFEGIVRQVRLRRDSKEKNERRLAYQKRKESMPRKARRFWGKIVAKNNKNMAFKLKSKSCHDLSVL [GEM] with Sindbis virus TE/5'2J-GFP and state it.
65

Recall the recorded percent infected for MEQHFLGCVKRAWDSAEVAPEPQPPPIVSSEDRGPWPLPLYPVLGEYSLDSCDLGLLSSPCWRLPGVYWQNGLSPGVQSTLEPSTAKPTEFSWPGTQKQQEAPVEEVGQAEEPDRLRLQQLPWSSPLHPWDRQQDTEVCDSGCLLERRHPPALQPWRHLPGFSDCLEWILRVGFAAFSVLWACCSRICGAKQP [C5orf39] with Sindbis virus TE/5'2J-GFP and state it.
9.13

Recall the recorded percent infected for MTLRCLEPSGNGGEGTRSQWGTAGSAEEPSPQAARLAKALRELGQTGWYWGSMTVNEAKEKLKEAPEGTFLIRDSSHSDYLLTISVKTSAGPTNLRIEYQDGKFRLDSIICVKSKLKQFDSVVHLIDYYVQMCKDKRTGPEAPRNGTVHLYLTKPLYTSAPSLQHLCRLTINKCTGAIWGLPLPTRLKDYLEEYKFQV [SOCS2] with Sindbis virus TE/5'2J-GFP and state it.
76.8

Recall the recorded percent infected for MMAQSKANGSHYALTAIGLGMLVLGVIMAMWNLVPGFSAAEKPTAQGSNKTEVGGGILKSKTFSVAYVLVGAGVMLLLLSICLSIRDKRKQRQGEDLAHVQHPTGAGPHAQEEDSQEEEEEDEEAASRYYVPSYEEVMNTNYSEARGEEQNPRLSISLPSYESLTGLDETTPTSTRADVEASPGNPPDRQNSKLAKRLKPLKVRRIKSEKLHLKDFRINLPDKNVPPPSIEPLTPPPQYDEVQEKAPDTRPPD [TMEM51] with Sindbis virus TE/5'2J-GFP and state it.
61.1

Others:
Recall the recorded percent infected for MPVERMRMRPWLEEQINSNTIPGLKWLNKEKKIFQIPWMHAARHGWDVEKDAPLFRNWAIHTGKHQPGVDKPDPKTWKANFRCAMNSLPDIEEVKDKSIKKGNNAFRVYRMLPLSERPSKKGKKPKTEKEDKVKHIKQEPVESSLGLSNGVSDLSPEYAVLTSTIKNEVDSTVNIIVVGQSHLDSNIENQEIVTNPPDICQVVEVTTESDEQPVSMSELYPLQISPVSSYAESETTDSVPSDEESAEGRPHWRKRNIEGKQYLSNMGTRGSYLLPGMASFVTSNKPDLQVTIKEESNPVPYNSSWPPFQDLPLSSSMTPASSSSRPDRETRASVIKKTSDITQARVKSC [IRF2] with Sindbis virus TE/5'2J-GFP and state it.
2.58

Recall the recorded percent infected for MSSAIERKSLDPSEEPVDEVLQIPPSLLTCGGCQQNIGDRYFLKAIDQYWHEDCLSCDLCGCRLGEVGRRLYYKLGRKLCRRDYLRLFGQDGLCASCDKRIRAYEMTMRVKDKVYHLECFKCAACQKHFCVGDRYLLINSDIVCEQDIYEWTKINGMI [LMO2] with Sindbis virus TE/5'2J-GFP and state it.
86.1

Recall the recorded percent infected for MAQASPPRPERVLGASSPEARPAQEALLLPTGVFQVAEKMEKRTCALCPKDVEYNVLYFAQSENIAAHENCLLYSSGLVECEDQDPLNPDRSFDVESVKKEIQRGRKLKCKFCHKRGATVGCDLKNCNKNYHFFCAKKDDAVPQSDGVRGIYKLLCQQHAQFPIIAQSAKFSGVKRKRGRKKPLSGNHVQPPETMKCNTFIRQVKEEHGRHTDATVKVPFLKKCKEAGLLNYLLEEILDKVHSIPEKLMDETTSESDYEEIGSALFDCRLFEDTFVNFQAAIEKKIHASQQRWQQLKEEIELLQDLKQTLCSFQENRDLMSSSTSISSLSY [PHF11] with Sindbis virus TE/5'2J-GFP and state it.
50.3

Recall the recorded percent infected for MRTSYLLLFTLCLLLSEMASGGNFLTGLGHRSDHYNCVSSGGQCLYSACPIFTKIQGTCYRGKAKCCK [DEFB1] with Sindbis virus TE/5'2J-GFP and state it.
84.4

Recall the recorded percent infected for MHLCGGNGLLTQTDPKEQQRQLKKQKNRAAAQRSRQKHTDKADALHQQHESLEKDNLALRKEIQSLQAELAWWSRTLHVHERLCPMDCASCSAPGLLGCWDQAEGLLGPGPQGQHGCREQLELFQTPGSCYPAQPLSPGPQPHDSPSLLQCPLPSLSLGPAVVAEPPVQLSPSPLLFASHTGSSLQGSSSKLSALQPSLTAQTAPPQPLELEHPTRGKLGSSPDNPSSALGLARLQSREHKPALSAATWQGLVVDPSPHPLLAFPLLSSAQVHF [BATF2] with Sindbis virus TE/5'2J-GFP and state it.
63.1

Recall the recorded percent infected for MNTIVFNKLSGAVLFEDGGASERERGGRPYSGVLDSPHARPEVGIPDGPPLKDNLGLRHRRTGARQNGGKVRHKRQALQDMARPLKQWLYKHRDNPYPTKTEKILLALGSQMTLVQVSNWFANARRRLKNTVRQPDLSWALRIKLYNKYVQGNAERLSVSSDDSCSEDGENPPRTHMNEGGYNTPVHHPVIKSENSVIKAGVRPESRASEDYVAPPKYKSSLLNRYLNDSLRHVMATNTTMMGKTRQRNHSGSFSSNEFEEELVSPSSSETEGNFVYRTDTLENGSNKGESAANRKGPSKDDTYWKEINAAMALTNLAQGKDKLQGTTSCIIQKSSHIAEVKTVKVPLVQQF [MKX] with Sindbis virus TE/5'2J-GFP and state it.
82.4

Recall the recorded percent infected for MIAAQAKLVYQLNKYYTERCQARKAAIAKTIREVCKVVSDVLKEVEVQEPRFISSLSEIDARYEGLEVISPTEFEVVLYLNQMGVFNFVDDGSLPGCAVLKLSDGRKRSMSLWVEFITASGYLSARKIRSRFQTLVAQAVDKCSYRDVVKMIADTSEVKLRIRERYVVQITPAFKCTGIWPRSAAQWPMPHIPWPGPNRVAEVKAEGFNLLSKECYSLTGKQSSAESDAWVLQFGEAENRLLMGGCRNKCLSVLKTLRDRHLELPGQPLNNYHMKTLLLYECEKHPRETDWDESCLGDRLNGILLQLISCLQCRRCPHYFLPNLDLFQGKPHSALESAAKQTWRLAREILTNPKSLDKL [MAB21L2] with Sindbis virus TE/5'2J-GFP and state it.
48.7
